Target: GCS in MDCKII cells (Canis lupus familiaris, UniProt A0A8I3MXG6)
Construct: whole cellular lipids of wild type MDCKII cells were extracted; endogenous in cells; host or cells: wild type MDCKII cells
Assay: GCS inhibition in MDCKII cells (glucosylceramide content after 24 h)
Format: cell-based, canine
Conditions: 24 hours exposure, glucosylceramide level
Experimental: GCS Inhibition in MDCKII Cells (MDCKII IC50, Table 1) MDCKII cells were routinely maintained in medium consisting of Opti-MEM/F12 (1:1), 5% FBS, 100 U/mL of penicillin, 100 µg/mL streptomycin and 200 mM L-glutamine. […] Following inhibitor treatment, whole cellular lipids of wild type MDCKII cells were extracted as previously described in detail (10). […] A portion of purified glycosphingolipids normalized to 100 nmol of total phospholipids was analyzed by high performance thin layer chromatography. […]
pIC50: −log10 of the molar value.
Result type: pIC50

Molecular string: COc1ccc([C@@H](O)[C@@H](CN2CC[C@@H](F)C2)NC(=O)CC2Cc3ccccc3C2)nc1
Target: GCS in MDCKII cells (Canis lupus familiaris, UniProt A0A8I3MXG6)
pIC50: 7.86

(A) COc1cc([C@@H](O)[C@@H](CN2CCCC2)NC(=O)CC2Cc3ccccc3C2)ccn1
(B) COc1ccc([C@@H](O)[C@@H](CN2CCCC2)N(C)C(=O)CC2Cc3ccccc3C2)nc1
Of A and B , whose reported pIC50 is the larger number? I would appreciate it if you answered with the label of your choice. B
(B: 7.80, A: 7.02)

====

Target: GCS in MDCKII cells (Canis lupus familiaris, UniProt A0A8I3MXG6)
Construct: whole cellular lipids of wild type MDCKII cells were extracted; endogenous in cells; host or cells: wild type MDCKII cells
Assay: GCS inhibition in MDCKII cells (glucosylceramide content after 24 h)
Format: cell-based, canine
Settings: cell marked 'rac': value of the racemate, 24 hours
Result type: pIC50
Scale note: pIC50 = -log10(concentration in M).

Any idea what its pIC50 is? The compound is O=C(CC1Cc2ccccc2C1)N[C@H](CN1CCCC1)[C@H](O)c1ccc(OC(F)(F)F)cn1 8.19

====

Target: glucosylceramide synthase (GCS) (Canis lupus familiaris)
Construct: endogenous in cells
Sequence (A0A8I3MXG6 1-394): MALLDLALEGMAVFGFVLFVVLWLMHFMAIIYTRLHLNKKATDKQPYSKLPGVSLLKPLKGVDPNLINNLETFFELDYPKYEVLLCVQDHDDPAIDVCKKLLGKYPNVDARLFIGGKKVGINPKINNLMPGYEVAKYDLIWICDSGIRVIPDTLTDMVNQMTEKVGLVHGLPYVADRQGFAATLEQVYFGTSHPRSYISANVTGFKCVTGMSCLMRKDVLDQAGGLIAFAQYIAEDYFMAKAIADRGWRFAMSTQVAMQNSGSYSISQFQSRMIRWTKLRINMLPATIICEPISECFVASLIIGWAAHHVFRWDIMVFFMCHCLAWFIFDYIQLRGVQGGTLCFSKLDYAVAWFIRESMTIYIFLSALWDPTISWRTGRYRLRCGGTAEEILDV
Assay: GCS inhibition in MDCK cell homogenates (Lysate IC50)
Conditions: MDCK cell homogenate
Result type: IC50 (nM)

(1) O=C(CC1Cc2ccccc2C1)N[C@H](CN1CCCC1)[C@H](O)c1ccc(OCC(F)(F)F)cn1
(2) O=C(CC1Cc2ccccc2C1)N[C@H](CN1CCCC1)[C@H](O)c1cc(Cl)ccn1 [Example 25]
Of the two listed items, 1 and 2 , which carries the larger IC50 figure? Kindly state the label of the option you pick. 2
(2: 36.4 nM, 1: 21.7 nM)

(a) O=C(CC1Cc2ccccc2C1)N[C@H](CN1CCCC1)[C@H](O)c1cccnc1
(b) COc1ccc(C(O)[C@@H](CN2CCCC2)NC(=O)CC2Cc3ccccc3C2)nc1 (stereo in doubt)
(c) COc1ccc([C@@H](O)[C@@H](CN2CC[C@@H](F)C2)NC(=O)CC2Cc3ccccc3C2)nc1
Rank items: key IC50, increasing. Sort the labels as requested; that list is your answer. b, c, a

(A) COc1cccc([C@@H](O)[C@@H](CN2CCCC2)NC(=O)CC2Cc3ccccc3C2)n1
(B) O=C(CC1Cc2ccccc2C1)N[C@H](CN1CCCC1)[C@H](O)c1cccc(Cl)n1
(C) O=C(CC1Cc2ccccc2C1)N[C@H](CN1CCCC1)[C@H](O)c1ccc(OC(F)(F)F)cn1 [Example 21]
Highest IC50 first, then in falling order down to the smallest. Use the labels to give the requested order. A, B, C
(A: 198 nM, B: 131 nM, C: 77 nM)
